# ASSAY_TARGET: T1, human Protein S (human, UniProt P07225 42-676)
# T1 construct: Called 'full length Protein S' / 'human full-length Protein S'; It was coated on plates (ELISA), Eu-labeled (LANCE) or immobilized on a chip (Biacore); also called PS; full length Protein S
# T1 sequence: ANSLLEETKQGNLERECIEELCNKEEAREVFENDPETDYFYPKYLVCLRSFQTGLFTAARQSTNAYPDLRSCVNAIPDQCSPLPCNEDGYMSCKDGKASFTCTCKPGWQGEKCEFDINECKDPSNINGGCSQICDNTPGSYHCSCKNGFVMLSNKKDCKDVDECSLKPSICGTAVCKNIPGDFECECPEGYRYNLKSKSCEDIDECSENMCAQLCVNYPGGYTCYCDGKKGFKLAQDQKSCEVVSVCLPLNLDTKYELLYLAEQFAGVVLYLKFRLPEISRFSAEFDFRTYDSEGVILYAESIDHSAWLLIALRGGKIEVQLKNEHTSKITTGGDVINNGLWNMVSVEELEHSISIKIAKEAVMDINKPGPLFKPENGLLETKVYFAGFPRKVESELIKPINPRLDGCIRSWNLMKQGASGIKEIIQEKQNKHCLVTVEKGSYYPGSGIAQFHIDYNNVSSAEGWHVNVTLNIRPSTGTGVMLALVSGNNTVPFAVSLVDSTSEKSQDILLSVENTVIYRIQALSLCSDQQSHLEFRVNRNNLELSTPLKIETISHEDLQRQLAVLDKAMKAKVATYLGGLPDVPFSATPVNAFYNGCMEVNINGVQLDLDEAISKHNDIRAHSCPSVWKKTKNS
# ASSAY_DETAILS: LANCE TR-FRET competition; Eu-labeled Protein S; competitor tracer JBS0684
Below, each of the binders is paired with its reported IC50 value.
# output: bare number, implied unit nM

Here's what some known entries look like.
| BINDER | RECORDED_METRIC | RESULT |
| --- | --- | --- |
| Ac-TGLVEAGWYDYNFDVYREFT-NH2 [JBS3193] | IC50 | 2.5 |
| Ac-TGLVEAGWYDYNFDTYREFT-NH2 [JBS3192] | IC50 | 2.8 |
| Ac-TGLVEAGWYDYNFDHYMEFT-NH2 [JBS3197] | IC50 | 6.1 |
| Ac-TGLVSAGWYDYNFDVYTEFT-NH2 [JBS3189] | IC50 | 5 |
| Ac-TGLVSAGWYDYNNDHYMEFT-NH2 [JBS3198] | IC50 | 2.5 |

Look up and report measured IC50 for this entry: Ac-TGLVSAGWYDYNNDTYREFT-NH2 [JBS3194]
1.8

Look up and report measured IC50 for this entry: Ac-TGLVSAGWYDYNFDTYMEFT-NH2 [JBS3186]
2.6
